- measurementSetup: hydrotrope 200 mg/mL in water, pH 6, room temperature, 4 hours incubation
assayEndpoint: SNAC concentration (mg/mL)
Give the quantity in mg/mL, number only.

compound | SNAC concentration [mg/mL]
CN(C)C(=O)c1ccccc1 [N,N dimethyl benzamide] | 22.46
NC(N)=O | 0.77
O=C(O[C@@H]1Cc2c(O)cc(O)cc2O[C@@H]1c1cc(O)c(O)c(O)c1)c1cc(O)c(O)c(O)c1 [Epigallocatechin gallate] | 5.66

Consider now this further compound.
Input line: For the compound CCN(CC)C(=O)c1cccnc1 [N,N diethyl nicotinamide] , what SNAC concentration is on record?
Output line: 4.58
